Each recorded value in this set is attributed to the supplement of paper PMC10849652.

# Tgt: ZNF143 (UniProt P52747)
# Sequence (P52747 whole entry, looked up): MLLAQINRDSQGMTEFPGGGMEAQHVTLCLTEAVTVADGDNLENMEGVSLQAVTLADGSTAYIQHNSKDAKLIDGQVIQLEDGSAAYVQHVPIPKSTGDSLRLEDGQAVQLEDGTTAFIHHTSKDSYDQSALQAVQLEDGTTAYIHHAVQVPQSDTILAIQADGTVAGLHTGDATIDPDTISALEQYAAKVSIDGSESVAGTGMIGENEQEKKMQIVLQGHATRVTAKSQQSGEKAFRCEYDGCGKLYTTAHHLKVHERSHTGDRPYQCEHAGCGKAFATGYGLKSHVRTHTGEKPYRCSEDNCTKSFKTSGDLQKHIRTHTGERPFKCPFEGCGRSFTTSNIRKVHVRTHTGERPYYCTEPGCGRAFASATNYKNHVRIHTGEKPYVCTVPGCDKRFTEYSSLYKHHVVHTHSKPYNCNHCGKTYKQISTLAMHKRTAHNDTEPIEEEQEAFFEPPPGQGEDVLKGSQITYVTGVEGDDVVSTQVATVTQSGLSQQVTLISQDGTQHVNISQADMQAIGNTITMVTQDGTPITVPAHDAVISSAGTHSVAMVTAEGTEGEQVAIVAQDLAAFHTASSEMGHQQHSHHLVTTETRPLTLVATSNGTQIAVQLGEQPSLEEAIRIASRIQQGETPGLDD
# Protocol: log2 fold change, soluble protein after heating vs DMSO (PISA); higher = thermal stabilisation; K562 cells, 10 uM, 30 min; active = over 0.2 and 3.5 SD of the protein, either way, in both replicates (recomputed)
Of roughly 7,900 targets only a part is listed; those with a hit were picked by preference. About 0.6% of all pairs of compound and target were hits.
Endpoint Label: log2 fold change

Recorded results for 5 compounds are shown here.
Compound | Tgt | log2 fold change
NC1(c2ccc(-c3nc4ccn5c(=O)[nH]nc5c4cc3-c3ccccc3)cc2)CCC1 | ZNF143 (UniProt P52747) | -0.023 (inactive)
CCn1cc(-c2ccnc3[nH]c(-c4cccc(CN(C)C)c4)cc23)c(-c2ccc(NC(=O)N(C)C)cc2)n1 | ZNF143 (UniProt P52747) | -0.102 (inactive)
O=C1NC(=NCc2cccs2)S/C1=C\c1ccc2ncccc2c1 | ZNF143 (UniProt P52747) | -0.028 (inactive)
Cc1nc(Nc2n[nH]c3c2CN(C(=O)N[C@H](CN(C)C)c2ccccc2)C3(C)C)c2sccc2n1 | ZNF143 (UniProt P52747) | -0.047 (inactive)
CCn1c(C(=O)N(C2CC2)C2CC2)cc2c3c(ncn3C)c(Nc3cc(C)n(C)n3)nc21 | ZNF143 (UniProt P52747) | 0.075 (inactive)

Which log2 fold change value belongs to COC(=O)N[C@@H](C)CNc1nccc(-c2cn(C(C)C)nc2-c2cc(Cl)cc(NS(C)(=O)=O)c2F)n1 [encorafenib] ? 0.014 (inactive)

Which log2 fold change value belongs to O=C1NC(=O)/C(=C\c2ccc3nccnc3c2)S1 ? 0.045 (inactive)

Which log2 fold change value belongs to CN(CCOc1ccc(C[C@@H]2SC(=O)NC2=O)cc1)c1ccccn1 (racemic) [rosiglitazone] ? -0.037 (inactive)

Which log2 fold change value belongs to Cn1c2cc(S(C)=O)sc2c2cnn(Cc3cccc(N)c3)c(=O)c21 (stereo not given) ? -0.003 (inactive)

Which log2 fold change value belongs to CNCc1ccc(-c2[nH]c3cc(F)cc4c3c2CCNC4=O)cc1 [rucaparib] ? -0.008 (inactive)

Which log2 fold change value belongs to Oc1cc(-c2nc(-c3ccccc3)[nH]c2-c2ccncc2)ccc1Cl ? 0.093 (inactive)

Which log2 fold change value belongs to O=C(Nc1nc2ccccc2n1CCN1CCOCC1)c1cccc([N+](=O)[O-])c1 [IRAK-1-4 Inhibitor I] ? 0.108 (inactive)

Which log2 fold change value belongs to NC(=O)c1cnc(N[C@@H]2CCCC[C@@H]2N)nc1Nc1cccc(-n2nccn2)c1 ? -0.106 (inactive)

Which log2 fold change value belongs to CN1CCC(CNc2ccc3ncc(-c4cccc(OC(F)(F)F)c4)n3n2)CC1 ? -0.109 (inactive)

Which log2 fold change value belongs to Cc1cccc(-c2[nH]c(C(C)(C)C)nc2-c2ccc3nccnc3c2)n1 ? 0.021 (inactive)

====

Recorded log2 fold change, one value per entry.
# Tgt: ZDHHC5 (UniProt Q9C0B5)
# Sequence (Q9C0B5 whole entry, looked up): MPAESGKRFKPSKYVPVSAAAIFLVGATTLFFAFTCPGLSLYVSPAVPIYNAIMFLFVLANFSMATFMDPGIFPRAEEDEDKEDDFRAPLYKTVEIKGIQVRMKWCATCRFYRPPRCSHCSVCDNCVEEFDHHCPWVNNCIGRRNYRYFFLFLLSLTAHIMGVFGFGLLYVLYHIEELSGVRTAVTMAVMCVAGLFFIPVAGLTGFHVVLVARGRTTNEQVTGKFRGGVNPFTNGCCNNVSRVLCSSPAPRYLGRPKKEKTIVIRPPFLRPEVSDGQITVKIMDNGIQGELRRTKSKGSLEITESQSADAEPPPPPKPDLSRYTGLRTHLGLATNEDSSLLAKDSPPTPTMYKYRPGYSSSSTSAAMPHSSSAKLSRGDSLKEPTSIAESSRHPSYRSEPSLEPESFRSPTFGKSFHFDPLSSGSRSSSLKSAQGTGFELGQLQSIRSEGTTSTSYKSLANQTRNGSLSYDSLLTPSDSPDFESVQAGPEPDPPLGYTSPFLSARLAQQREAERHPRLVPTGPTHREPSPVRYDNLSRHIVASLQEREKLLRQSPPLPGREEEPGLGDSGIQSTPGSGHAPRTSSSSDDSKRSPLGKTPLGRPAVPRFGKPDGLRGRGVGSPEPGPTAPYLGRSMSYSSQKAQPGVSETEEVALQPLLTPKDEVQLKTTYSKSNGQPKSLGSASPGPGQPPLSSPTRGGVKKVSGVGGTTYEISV
# Protocol: log2 fold change, soluble protein after heating vs DMSO (PISA); higher = thermal stabilisation; K562 cells, 10 uM, 30 min; active = over 0.2 and 3.5 SD of the protein, either way, in both replicates (recomputed)
The full data set covers some 7,900 targets. This sample favours those with a hit. About 0.6% of all pairs of compound and target were hits.
// response body must contain only the number

Recorded results for 5 molecules are shown here.
Molecule | log2 fold change
C[C@@H]1COCCN1c1cc(C2(S(C)(=O)=O)CC2)nc(-c2cccc3[nH]ccc23)n1 | -0.011
CC[C@H](C)n1cc(C)c2c(C(=O)NCc3c(C)cc(C)[nH]c3=O)cc(-c3ccc(N4CCNCC4)nc3)cc21 | -0.052
O=C(CCCCCCC(=O)Nc1ccccc1)NO [vorinostat] | -0.02
CS(=O)(=O)N1CCN(Cc2cc3nc(-c4cccc5[nH]ncc45)nc(N4CCOCC4)c3s2)CC1 [pictilisib] | 0.047
Cn1c2cc(S(C)=O)sc2c2cnn(Cc3cccc(N)c3)c(=O)c21 (centres undefined) | -0.049

We now examine a further molecule.
Which log2 fold change value belongs to CCn1c(C(=O)N(C2CC2)C2CC2)cc2c3c(ncn3C)c(Nc3cc(C)n(C)n3)nc21 ? -0.012

====

Recorded log2 fold change, one value per entry.
# Tgt: ZFPL1 (UniProt O95159)
# Sequence (O95159 whole entry, looked up): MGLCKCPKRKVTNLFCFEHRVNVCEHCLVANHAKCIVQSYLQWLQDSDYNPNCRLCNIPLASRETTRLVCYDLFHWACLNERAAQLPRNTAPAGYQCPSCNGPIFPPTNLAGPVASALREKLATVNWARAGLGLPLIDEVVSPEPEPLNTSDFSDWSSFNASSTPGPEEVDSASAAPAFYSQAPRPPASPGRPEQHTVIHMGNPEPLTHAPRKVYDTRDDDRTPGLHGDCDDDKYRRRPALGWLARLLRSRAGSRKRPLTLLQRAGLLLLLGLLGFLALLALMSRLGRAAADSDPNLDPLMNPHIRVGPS
# Protocol: log2 fold change, soluble protein after heating vs DMSO (PISA); higher = thermal stabilisation; K562 cells, 10 uM, 30 min; active = over 0.2 and 3.5 SD of the protein, either way, in both replicates (recomputed)
Targets with a hit are over-represented here; the source holds about 7,900 in all. About 0.6% of all pairs of compound and target were hits.
// response body must contain only the number

Recorded results for 2 compounds are shown here.
Structure | Tgt | Reported Measurement
Cc1cn(-c2cc(NC(=O)c3ccc(C)c(Nc4nccc(-c5cccnc5)n4)c3)cc(C(F)(F)F)c2)cn1 | ZFPL1 (UniProt O95159) | -0.047
C[C@H](Nc1ncnc2nc[nH]c12)c1cc2cccc(Cl)c2c(=O)n1-c1ccccc1 | ZFPL1 (UniProt O95159) | 0.046

Which log2 fold change value belongs to CN1CCc2c(c3ccccc3n2Cc2ccc(C(=O)NO)cc2)C1 ? -0.025

Which log2 fold change value belongs to CS(=O)(=O)CCNCc1ccc(-c2ccc3ncnc(Nc4ccc(OCc5cccc(F)c5)c(Cl)c4)c3c2)o1 ? -0.035

====

# Tgt: YIPF5 isoform 3 (UniProt Q969M3)
# Sequence (Q969M3 whole entry, looked up, canonical isoform): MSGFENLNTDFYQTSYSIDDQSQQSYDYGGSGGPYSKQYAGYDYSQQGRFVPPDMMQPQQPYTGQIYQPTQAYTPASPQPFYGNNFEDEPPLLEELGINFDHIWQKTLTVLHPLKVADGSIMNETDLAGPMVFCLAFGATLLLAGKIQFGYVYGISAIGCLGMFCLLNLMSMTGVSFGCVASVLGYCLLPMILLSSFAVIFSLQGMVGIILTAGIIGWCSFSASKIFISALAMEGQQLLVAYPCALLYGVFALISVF
# Protocol: log2 fold change, soluble protein after heating vs DMSO (PISA); higher = thermal stabilisation; K562 cells, 10 uM, 30 min; active = over 0.2 and 3.5 SD of the protein, either way, in both replicates (recomputed)
About 7,900 targets were measured; listed, in parts, are those with a hit and a random draw of the rest. About 0.6% of all pairs of compound and target were hits.
Returns the class for an entry based on its log2 fold change. Class ranges: group A: < -0.04; group B: ≥ -0.04 and < 0.02; group C: ≥ 0.02

Check out these entries, answers already filled in.
Molecule | Group
COC(=O)[C@H](CCSC)NC(=O)c1ccc(NC[C@@H](N)CS)cc1-c1ccccc1 | group C
NC(=O)c1ccc2nc(-c3ccc(Oc4ccc(Cl)cc4)cc3)[nH]c2c1 | group B
Cc1nc(Nc2n[nH]c3c2CN(C(=O)N[C@H](CN(C)C)c2ccccc2)C3(C)C)c2sccc2n1 | group B
CC(C)(O)CC(=O)NCCn1ccc2ncnc(Nc3ccc(Oc4cccc(C(F)(F)F)c4)c(Cl)c3)c21 | group A
c1cc(OCCN2CCCCC2)cc(-c2n[nH]c3ccc(-c4nnc[nH]4)cc23)c1 | group A

Class (by measured log2 fold change) for CC(C)c1cnn2c(NCc3ccccc3)cc(NCCCCCCN)nc12 group B

Class (by measured log2 fold change) for CCCCN(Cc1ccc(C(=O)NO)cc1)C(=O)Nc1ccccc1 [Nexturastat A] group C

Class (by measured log2 fold change) for CS(=O)(=O)c1ccc(-c2cnc(N)c(C(=O)Nc3ccccc3)n2)cc1 group A

Class (by measured log2 fold change) for CS(=O)(=O)N1CCN(Cc2cc3nc(-c4cccc5[nH]ncc45)nc(N4CCOCC4)c3s2)CC1 [pictilisib] group C

Class (by measured log2 fold change) for CN1CCc2c(c3ccccc3n2Cc2ccc(C(=O)NO)cc2)C1 [Tubastatin A] group A

Class (by measured log2 fold change) for CCCS(=O)(=O)Nc1ccc(F)c(C(=O)c2c[nH]c3ncc(-c4ccc(Cl)cc4)cc23)c1F [vemurafenib] group B

Class (by measured log2 fold change) for C[C@@H](N)c1ccc(C(=O)Nc2ccnc3[nH]ccc23)cc1 group A

Class (by measured log2 fold change) for CN1CC[C@H](c2c(O)cc(O)c3c(=O)cc(-c4ccccc4Cl)oc23)[C@H](O)C1 [alvocidib] group B

Class (by measured log2 fold change) for CN(CCOc1ccc(C[C@@H]2SC(=O)NC2=O)cc1)c1ccccn1 (racemic) [rosiglitazone] group B

Class (by measured log2 fold change) for Cn1cncc1[C@@](N)(c1ccc(Cl)cc1)c1ccc2c(c1)c(-c1cccc(Cl)c1)cc(=O)n2C [tipifarnib] group A

Class (by measured log2 fold change) for Cn1c2cc(S(C)=O)sc2c2cnn(Cc3cccc(N)c3)c(=O)c21 (stereo not drawn) group C

Class (by measured log2 fold change) for NC(=O)Nc1cc(-c2cccc(F)c2)sc1C(=O)N[C@H]1CCCNC1 group C

Class (by measured log2 fold change) for O=C1NC(=O)/C(=C\c2ccc3nccnc3c2)S1 group B

====

# Tgt: ZDHHC20 (UniProt Q5W0Z9)
# Sequence (Q5W0Z9 whole entry, looked up): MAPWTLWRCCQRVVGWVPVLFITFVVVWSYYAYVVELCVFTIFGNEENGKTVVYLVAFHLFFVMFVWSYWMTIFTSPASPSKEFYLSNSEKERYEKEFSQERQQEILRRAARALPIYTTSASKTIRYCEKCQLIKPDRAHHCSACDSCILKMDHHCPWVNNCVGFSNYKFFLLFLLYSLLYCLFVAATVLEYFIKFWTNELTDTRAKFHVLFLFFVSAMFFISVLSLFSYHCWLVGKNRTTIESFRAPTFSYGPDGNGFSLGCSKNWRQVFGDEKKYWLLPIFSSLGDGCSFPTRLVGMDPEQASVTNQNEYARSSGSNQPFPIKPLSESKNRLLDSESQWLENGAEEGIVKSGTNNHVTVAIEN
# Protocol: log2 fold change, soluble protein after heating vs DMSO (PISA); higher = thermal stabilisation; K562 cells, 10 uM, 30 min; active = over 0.2 and 3.5 SD of the protein, either way, in both replicates (recomputed)
The full data set covers some 7,900 targets. This sample favours those with a hit. About 0.6% of all pairs of compound and target were hits.
Endpoint Label: log2 fold change

Recorded results for 4 molecules are shown here.
Molecule | Tgt | log2 fold change
COc1cc(C(=O)O)ccc1NC(=O)[C@@H]1N[C@@H](CC(C)(C)C)[C@](C#N)(c2ccc(Cl)cc2F)[C@H]1c1cccc(Cl)c1F | ZDHHC20 (UniProt Q5W0Z9) | -0.014 (inactive)
CS(=O)(=O)CCNCc1ccc(-c2ccc3ncnc(Nc4ccc(OCc5cccc(F)c5)c(Cl)c4)c3c2)o1 | ZDHHC20 (UniProt Q5W0Z9) | 0.063 (inactive)
Nc1ccccc1NC(=O)c1ccc(CNC(=O)OCc2cccnc2)cc1 | ZDHHC20 (UniProt Q5W0Z9) | 0.045 (inactive)
C/C(=N\NC(=O)c1cccc(S(=O)(=O)N2CCOCC2)c1)c1cc(Cl)ccc1O | ZDHHC20 (UniProt Q5W0Z9) | -0.048 (inactive)

We now examine a further molecule.
Which log2 fold change value belongs to CCN(CC)Cc1ccc2cc(COC(=O)Nc3ccc(C(=O)NO)cc3)ccc2c1 ? -0.167 (inactive)
